Counter-ions that a name gives are not always drawn.
Heads up, these compounds all have IC50 values measured for human ROCK I (Homo sapiens, UniProt Q13464).
endpointName: IC50 (nM)

Worked examples follow.
| compound | IC50 / nM |
| --- | --- |
| N[C@@H](Cc1ccccc1)C(=O)N1CCc2cc(-c3ccncc3)ccc21 | 53 |
| CN[C@H](Cc1ccccc1)C(=O)Nc1ccc(-c2ccncc2)cc1 | 21 |
| Nc1nccc(-c2ccc(NC(=O)[C@H](N)c3cccs3)cc2)n1 | 72 |
| N[C@@H](Cc1ccccc1)C(=O)Nc1ccc(-c2ccncc2)cc1 [Example 53, dihydrochloride] | 18 |

a: Cl.O=C(CNc1ccccc1)Nc1ccc(-c2ccncc2)cc1 [Example 26, hydrochloride]
b: O=C(Nc1ccc(-c2ccncc2)cc1)N[C@H](CO)c1cccs1
Pick one, a or b : lowest reported IC50. Reply briefly: the label of your chosen item.
a

Provenance of the data: patent US8211919B2
